- run-description: FRG1 promoter luciferase signal modulators, primary screen, FRG1 inhibition for FSHD, cell-based, C2C12 myotubes, firefly/Renilla luciferase, luminescence (AID 1084)
- experimental-setup: higher = more signal, called active from +8 up or from −8 down
quantity-kind: z-score
The answer should be a number; do not append a unit.

-- ask For the compound CN1C(=O)C2C=CC(C(O)c3ccc([N+](=O)[O-])cc3)N(N3CCCCC3)C2C1=O (stereo not drawn) , what z-score is on record?
-- reply 0.198

-- ask Same for C=CCC(OC(C)=O)[C@@H]1[C@@H](N(Cc2cccc3ccccc23)C(=O)c2ccc(-c3ccccc3)cc2)c2cc(OCCCO)ccc2N1C(=O)c1ccc2ccccc2c1 (stereo partly drawn)
-- reply -0.0039

-- ask Same for `NC(=O)NCC#Cc1ccc2c(c1)[C@]1(C(=O)N2)[C@H](C(=O)Nc2nc3ccccc3s2)[C@H]2C(=O)O[C@H](c3ccccc3)[C@H](c3ccccc3)N2[C@@H]1c1ccccc1OCCO`
-- reply 1.62

-- ask Same for `COCCOC(=O)N1C(=O)[C@@]2(c3cc(C#CCNC(N)=O)ccc31)[C@H](C(=O)N1CCN(c3ncccn3)CC1)[C@H]1C(=O)O[C@H](c3ccccc3)[C@H](c3ccccc3)N1[C@@H]2c1ccc(OCCO)cc1`
-- reply 0.0006

-- ask Same for `COC(=O)[C@@]1(Cc2ccccc2)N=C(c2ccc(OCCCO)cc2)O[C@H]1c1ccccc1`
-- reply -2.3

-- ask Same for `COCCOC(=O)N1C(=O)[C@@]2(c3cc(C#CCNC(N)=O)ccc31)[C@H](C(=O)Nc1nc3ccccc3s1)[C@H]1C(=O)O[C@H](c3ccccc3)[C@H](c3ccccc3)N1[C@@H]2c1ccc(OCCO)cc1`
-- reply 6.33

-- ask Same for `Oc1ccc2cc[n+](Cc3sc4ccccc4c3Cl)cc2c1`
-- reply 1.7

-- ask Same for `COc1ccc([Si](C)(C)[C@H]2[C@H](CC(=O)N3Cc4ccccc4C[C@H]3CO)O[C@@]3(C(=O)N(Cc4cccc(N5CCC5=O)c4)c4ccccc43)[C@@H]2C)cc1`
-- reply -2.41

-- ask Same for CC(C)=CCCC(C)=CC(O)C1C=CC2C(=O)N(C)C(=O)C2N1Nc1ccccc1 (stereo not drawn)
-- reply -1.04

-- ask Same for `CCOC(=O)C[C@H]1[C@H](OC(=O)c2ccc(-c3ccccc3)cc2)[C@@H](NC(=O)Cc2ccc(OC)cc2)c2cc(OCCCO)ccc2N1C(=O)c1ccccc1`
-- reply -0.831

-- ask Same for `COc1ccc(C#Cc2ccc3c(c2)[C@]2(C(=O)N3)[C@H](C(=O)Nc3nc4ccccc4s3)[C@H]3C(=O)O[C@H](c4ccccc4)[C@H](c4ccccc4)N3[C@@H]2c2ccc(O)cc2)cc1`
-- reply 1.46

-- ask Same for CC(C)C(CO)N1C(=O)[C@@H]2C3C(=O)OCCC/C=C\[C@H]3OC23C=CCN(CCN2CCOCC2)C(=O)[C@@H]13 (stereo partly drawn)
-- reply 1.3

-- ask Same for `COC(=O)[C@@]1(Cc2ccccc2)[C@H]2c3cc(C(=O)N(C)C)n(Cc4ccsc4Br)c3C[C@H]2CN1C(=O)c1ccccc1`
-- reply 0.332

====

- study-system: E3 ubiquitin-protein ligase XIAP (Homo sapiens)
- run-description: XIAP binders, primary screen, biophysical, small-molecule microarray, fluorescence 635 nm (AID 1181);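 note: score merges 667 nm emission and signal to noise over triplicate slides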
- experimental-setup: small-molecule microarray binding, higher = more signal
Provide the recorded composite z-score for the entries that follow.
The answer should be a number; do not append a unit.

-- ask For the molecule `COc1ccc(-c2cc3c(c(-c4ccc(Oc5ccccc5)cc4)n2)[Si](C(C)C)(C(C)C)OC3)cn1` , what composite z-score is on record?
-- reply -0.0326

-- ask Same for `C=CCN1C(=O)[C@@]2(Cc3ccccc31)N=C(c1ccc(OCCCO)cc1)O[C@H]2c1ccccc1`
-- reply -0.0009

-- ask Same for O=C1C2C=CC(C(O)c3cc(C(F)(F)F)cc(C(F)(F)F)c3)N(n3cnnc3)C2C(=O)N1Cc1ccccc1 (configuration not stated)
-- reply 0.0945

-- ask Same for `O=C(c1ccccc1)N1C(=O)[C@]2(COC(c3ccc(OCCCO)cc3)=N2)Cc2ccccc21`
-- reply 0.0479

-- ask Same for `COC(=O)C(CC#Cc1ccc2c(c1)[C@]1(C(=O)N2)[C@H](C(=O)Nc2nc3ccccc3s2)[C@H]2C(=O)O[C@H](c3ccccc3)[C@H](c3ccccc3)N2[C@@H]1c1ccc(O)cc1)C(=O)OC`
-- reply 0.208

-- ask Same for `O=C(CS)NCCCCCCNC(=O)[C@@H]1C[C@@H]2C(=O)NCC(=O)N2[C@@H]1c1cccc(OCCO)c1`
-- reply 0.0346

-- ask Same for CC1CC/C=C\[C@H]2OC34C=CCN(Cc5ccccc5)C(=O)[C@H]3N(CCCO)C(=O)[C@@H]4C2C(=O)O1 (some centres not stated)
-- reply -0.176

-- ask Same for `COC(=O)[C@@]1(Cc2ccc(OC)cc2)[C@H]2c3cc(C(=O)N(C)C)n(Cc4ccc(S(C)(=O)=O)cc4)c3C[C@H]2CN1C(=O)c1ccccc1`
-- reply -0.0139

-- ask Same for `CC(C)[Si]1(C(C)C)O[C@@H](c2ccccc2)c2cc(-c3ccc(-c4ccc(Cl)c(Cl)c4)o3)nc(-c3ccccc3)c21`
-- reply -0.202

-- ask Same for `COCCCNC(=O)[C@]1(CCC(=O)OC(C)(C)C)N=C(c2ccc(OCCCO)cc2)O[C@@H]1c1ccccc1CN=[N+]=[N-]`
-- reply 0.23

-- ask Same for `C=C(/C(=C/C[C@H](OC(C)=O)c1ccccc1OCCO)c1cnc2ccccc2c1)C(C)C`
-- reply -0.238

-- ask Same for `CC(C)CNC(=O)[C@@]1(Cc2ccccc2I)c2ccccc2C(=O)N(C2CCCCC2)[C@H]1c1ccc(CO)cc1`
-- reply -0.0789

-- ask Same for COc1cc2c(cc1O)C(C1CC1)N(Cc1sc3ccccc3c1Cl)CC2 (configuration not stated)
-- reply -0.031

-- ask Same for `C=C(CCCC)/C(=C/C[C@H](OC(C)=O)c1ccccc1OCCO)c1cc(C(=O)OC)ccc1OC`
-- reply -0.28

-- ask Same for `CO[C@H]1O[C@H](CO)[C@@H](OC(=O)Nc2ccc(Oc3ccccc3)cc2)[C@H](OC(=O)Nc2ccc3c(c2)OCO3)[C@H]1OC(=O)Nc1ccc2c(c1)OCO2`
-- reply -0.0795

-- ask Same for `COCCOC(=O)N1C(=O)[C@@]2(c3cc(C#CC4(O)CCCCCC4)ccc31)[C@H](c1ccccc1OCCO)N1[C@H](c3ccccc3)[C@H](c3ccccc3)OC(=O)[C@H]1[C@@H]2C(=O)N1CCN(c2ncccn2)CC1`
-- reply 0.0774

-- ask Same for `Oc1ccc2cc[n+](Cc3sc4ccccc4c3Cl)cc2c1`
-- reply -0.0095

====

- run-description: E. coli acrAB mutant growth effects, primary screen, E. coli filamentation inducers, strain DRC39, OD650, 24 h (AID 1178);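 note: growth measured as culture turbidity by optical density at 650 nm; test concentration not given here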
- experimental-setup: higher = more signal, called active from +8 up or from −8 down
Activity calls are given as the source filed them.
quantity-kind: z-score

-- ask For the molecule `C[N+](C)(C)CCCCNC(=O)[C@H]1C[C@H]2C(=O)N3CCC[C@H]3C(=O)N2[C@H]1c1cccc(OCCO)c1` , what z-score is on record?
-- reply 0.66 (inactive)

-- ask Same for `COc1ccc(-c2cc3c(c(-c4ccc(Oc5ccccc5)cc4)n2)[Si](C(C)C)(C(C)C)OC3)cn1`
-- reply -0.794 (inactive)

-- ask Same for `C=C[C@H](OC)[C@@H](OC(=O)Nc1ccc(OC)cc1)c1ccc(O)c(F)c1`
-- reply 1.41 (inactive)

-- ask Same for `O=C1c2ccccc2[C@](Cc2ccccc2I)(C(=O)NCCN2CCOCC2)[C@H](c2ccc(CO)cc2)N1C1CCCCC1`
-- reply 0.29 (inactive)

-- ask Same for `C=C(CC1([C@@H](NP(=O)(c2ccccc2)c2ccccc2)[C@H]2C[C@@H]2CCCC)CC1)c1ccccc1`
-- reply -0.167 (inactive)

-- ask Same for `O=C1O[C@@H](c2ccccc2)[C@@H](c2ccccc2)N2[C@@H](c3ccccc3OCCO)[C@]3(C(=O)Nc4ccccc43)[C@@H](C(=O)Nc3nc4ccccc4s3)[C@H]12`
-- reply -0.986 (inactive)

-- ask Same for C=C(C)[C@@H]1CC=C(C(O)C2C=CC3C(=O)N(C)C(=O)C3N2Nc2ccccc2)CC1 (stereo partly drawn)
-- reply -0.683 (inactive)

-- ask Same for CC1(C)[C@@H]2CC(C(O)C3C=CC4C(=O)N(c5ccccc5)C(=O)C4N3Nc3ccc([N+](=O)[O-])cc3)=C[C@H]1C2 (stereo partly drawn)
-- reply -0.982 (inactive)

====

- Tested on: Plasmodium falciparum Sir2 (PF13_0152, Sir2A)
- run-description: pfSir2 binders on small-molecule microarrays, primary screen, biochemical, small-molecule microarray, 635 nm fluorescence (AID 1098);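 note: score merges spot fluorescence intensity with its signal-to-noise ratio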
- experimental-setup: small-molecule microarray binding, fluorescence 635 nm; higher = more signal
quantity-kind: composite z-score
The answer should be a number; do not append a unit.

-- ask For the molecule CC(CO)N1C(=O)[C@@H]2C3C(=O)OCCC/C=C\[C@H]3OC23C=CCN(C(C)(C)C)C(=O)[C@@H]13 (stereo partly drawn) , what composite z-score is on record?
-- reply 0.205

-- ask Same for `CC(C)C(=C=CC[C@H](O)c1ccc(OCCO)cc1)CCO`
-- reply 1.42

-- ask Same for COc1cc2c(cc1O)C(c1cccs1)N(C)CC2 (stereo not drawn)
-- reply 0.0826

-- ask Same for `COCCOC(=O)N1C(=O)[C@@]2(c3cc(C#CCCO)ccc31)[C@H](C(=O)N1CCCCCCC1)[C@H]1C(=O)O[C@H](c3ccccc3)[C@H](c3ccccc3)N1[C@@H]2c1ccc(OCCO)cc1`
-- reply 1.4

-- ask Same for `CCOC(=O)C[C@H]1[C@H](OC(=O)c2ccc(C(=O)c3ccccc3)cc2)[C@@H](NC(=O)c2ccc3ccccc3n2)c2cc(OCCCO)ccc2N1C(=O)c1ccccc1`
-- reply 0.772

-- ask Same for `C=CCOC(=O)[C@H]1[C@@H]2C(=O)O[C@@H](c3ccccc3)[C@@H](c3ccccc3)N2[C@@H](c2ccc(OCCOC(=O)[C@H]3C[C@H]4C(=O)N[C@@H](CCCCNC(C)=O)C(=O)N4[C@H]3c3cccc(OCCO)c3)cc2)[C@]12C(=O)Nc1ccccc12`
-- reply 1.42

-- ask Same for CC(C)C(CO)N1C(=O)[C@@H]2C3C(=O)OCCC/C=C\[C@H]3OC23C=CCN(CCN2CCOCC2)C(=O)[C@@H]13 (stereo partly drawn)
-- reply -0.768

-- ask Same for `C=CCOC(=O)[C@H]1[C@@H]2C(=O)O[C@@H](c3ccccc3)[C@@H](c3ccccc3)N2[C@@H](c2ccc(OCCOC(=O)[C@H]3C[C@H]4C(=O)N[C@@H](CCCCNC(C)=O)C(=O)N4[C@H]3c3ccc(O)cc3)cc2)[C@]12C(=O)Nc1ccc(I)cc12`
-- reply 1.33

-- ask Same for `[N-]=[N+]=Nc1ccccc1[C@H]1OC(c2ccc(OCCCO)cc2)=N[C@@]1(CCS(=O)(=O)c1ccccc1)C(N)=O`
-- reply 1.53

-- ask Same for `COc1cc2c(cc1OC)CN(C(=O)[C@@H]1[C@H]3C(=O)O[C@H](c4ccccc4)[C@H](c4ccccc4)N3[C@H](c3ccc(O)cc3)[C@@]13C(=O)Nc1ccccc13)CC2`
-- reply 1.66

-- ask Same for CC1(C)[C@@H]2CC(C(O)C3C=CC4C(=O)N(Cc5ccccc5)C(=O)C4N3n3cnnc3)=C[C@H]1C2 (stereo partly drawn)
-- reply 0.779

-- ask Same for `O=C1C[C@@](C(=O)NCCN2CCOCC2)(c2ccc([N+](=O)[O-])cc2)[C@@H](c2ccc(CO)cc2)N1CC12CC3CC(CC(C3)C1)C2`
-- reply 0.866

-- ask Same for C=C(C)[C@@H]1CC=C(C(O)C2C=CC3C(=O)N(C)C(=O)C3N2Nc2ccccc2)CC1 (stereo partly drawn)
-- reply 0.433

-- ask Same for `COC(=O)[C@@]1(Cc2ccc(OC)cc2)[C@H]2c3cc(C(=O)N(C)C)n(CCc4ccccn4)c3C[C@H]2CN1C(=O)c1ccccc1`
-- reply 0.566

-- ask Same for `Oc1ccc2cc[n+](Cc3sc4ccccc4c3Cl)cc2c1`
-- reply 0.23

-- ask Same for `COc1ccc([Si](C)(C)[C@@H]2[C@@H](CC(=O)N3CCC[C@H]3CO)O[C@]3(C(=O)N(c4ccccc4)c4ccccc43)[C@H]2C)cc1`
-- reply 0.977

-- ask Same for `C=C[C@H](C)[C@@H](OC(=O)Nc1ccc(OC)cc1)c1ccc(O)c2ccccc12`
-- reply 0.408

-- ask Same for `CC(C)=CCN[C@H](CO)c1ccccc1`
-- reply 0.38

-- ask Same for `O=C(c1ccccc1)N1Cc2ccccc2C[C@@]2(COC(c3ccc(OCCCO)cc3)=N2)C1=O`
-- reply 1.5

-- ask Same for `COCCOC(=O)N1C(=O)[C@@]2(c3ccccc31)[C@H](C(=O)N1CCc3cc(OC)c(OC)cc3C1)[C@H]1C(=O)O[C@H](c3ccccc3)[C@H](c3ccccc3)N1[C@@H]2c1ccc(OCCO)cc1`
-- reply 1.33

-- ask Same for `CCCC[C@@H]1C[C@H]1[C@@H](NC(=O)c1ccco1)c1ccc(-c2ccccc2)cc1`
-- reply -0.338

-- ask Same for `CCOC(=O)C[C@H]1[C@H](OC(=O)c2ccc(C(=O)c3ccccc3)cc2)[C@@H](NC(=O)c2ccccc2)c2cc(OCCCO)ccc2N1C(=O)Cc1ccc(OC)cc1`
-- reply -0.0032

-- ask Same for `COCCCNC(=O)[C@@H]1c2ccccc2C(=O)N(Cc2ccccc2Cl)[C@H]1c1ccc(CO)cc1`
-- reply 0.471

-- ask Same for CCCc1cc2c(n1Cc1cc(F)cc(F)c1)C(C)C1CN(C(=O)c3ccccc3)C(C)(C(=O)OC)C21 (stereo not drawn)
-- reply 1.01

-- ask Same for `CN(C)CCCC[C@@H]1NC(=O)[C@H]2C[C@@H](C(=O)NCCCCCCN)[C@@H](c3ccc(O)cc3)N2C1=O`
-- reply 0.436

-- ask Same for `COC(=O)[C@@]1(Cc2ccc(F)cc2)[C@H]2c3cc(C(=O)N(C)C)n(Cc4ccccc4)c3C[C@H]2CN1C(=O)c1ccccc1`
-- reply 1.18

-- ask Same for `CC(C)N1C(=O)[C@@]2(Cc3ccccc31)c1ccccc1C(=O)N(Cc1ccccc1Cl)[C@H]2c1ccc(CO)cc1`
-- reply 0.465

-- ask Same for `COC(=O)[C@]1(CCC(=O)OC(C)(C)C)N=C(c2ccc(OCCCO)cc2)O[C@@H]1c1ccccc1CN=[N+]=[N-]`
-- reply 1.09
